Exercise: state measured TGI for each of the molecules provided.
System: MALME-3M melanoma
assayNotes: NCI tumour cell line growth inhibition, 48 h
Where a SMILES comes first, the peptide text is derived from it. [ ]: non-standard residue; d: D form. The star is where a group is joined. Phe(4-NO2) = N[CH](Cc1ccc([N+](=O)[O-])cc1)C(=O)O; Boc = CC(C)(C)OC(=O)*

Prompt line: Which TGI reading was recorded for the molecule CC(C)=CC1=C2C3=C(C(=O)C4(O)Oc5c(C)c6c7c(c5OC24C)[C@@H](C)CC[C@@H]7[C@@H](C)C[C@H]6C=C(C)C)C(C)CCC3C(C)C1 (some centres not stated) ?
Response line: > 100 µM

Prompt line: Which TGI reading was recorded for the molecule CCCC(=O)OC1C(CO)OC(n2cc(F)c(=O)[nH]c2=O)C1F (configuration not stated) ?
Response line: > 100 µM

Prompt line: Which TGI reading was recorded for the molecule CNC(=O)CCC(NC(=O)OC(C)(C)C)C(=O)NC(Cc1ccc([N+](=O)[O-])cc1)C(=O)NCC(=O)NC (configuration not stated) (Boc-Glu(NHMe)-[Phe(4-NO2)]-Gly-NHMe; configuration not given here) ?
Response line: > 100 µM

Prompt line: Which TGI reading was recorded for the molecule CC(C)(c1ccccc1)c1ccc(OC#N)cc1 ?
Response line: > 100 µM

Prompt line: Which TGI reading was recorded for the molecule C=CC(Cl)(CBr)CCC(Br)C(C)(C)Cl (configuration not stated) ?
Response line: 35.8 µM

Prompt line: Which TGI reading was recorded for the molecule N#CC1(C#N)C(C#N)(C#N)C12CCCCCC2 ?
Response line: 31 µM

Prompt line: Which TGI reading was recorded for the molecule Cn1cc2ccccc2c1-c1nc(F)nc(OCC(=O)[C@H]2CCC3[C@@H]4CCC5=CC(=O)CC[C@]5(C)C4[C@@H](O)C[C@@]32C)n1 (some centres not stated) ?
Response line: 33.8 µM

Prompt line: Which TGI reading was recorded for the molecule COc1ccc(C2ON(c3cccc(C)n3)CC=C2C)cc1 (configuration not stated) ?
Response line: > 100 µM

Prompt line: Which TGI reading was recorded for the molecule Clc1ccc(C(n2cc(Br)cn2)n2cc(Br)cn2)cc1 ?
Response line: 31.7 µM

Prompt line: Which TGI reading was recorded for the molecule CN1C(=O)C2C(C1=O)C1(O)c3ccccc3C2(N)c2ccccc21 (configuration not stated) ?
Response line: > 100 µM

Prompt line: Which TGI reading was recorded for the molecule CC(C)(C)c1cc(O)ccc1O ?
Response line: > 27.6 µM

Prompt line: Which TGI reading was recorded for the molecule C#CCOc1cccc(Nc2ncnc3cc(NC(=O)CCl)ccc23)c1 ?
Response line: 20.5 µM

This collection of values is drawn from PubChem BioAssay (NCI).
